system: L. donovani axenic amastigotes; assay: L. donovani axenic amastigote viability, 72 hour Alamar blue assay; assay type: cell-based, Leishmania donovani; details: read-out: L. donovani Axenic amastigotes IC50; 72 hour Alamar blue, pH 5.5, 37°C
Entries and their IC50 values follow.
measureName: IC50 (µM)

compound	testedTarget	measureName	scaleUnit	result
COc1ccc2[nH]c3cc(O)c(CO)cc3c2c1	L. donovani axenic amastigotes	IC50	µM	41.1
N=C(N)c1ccc(OCCCCCOc2ccc(C(=N)N)cc2)cc1 [Pentamidine, reference compound]	L. donovani axenic amastigotes	IC50	µM	2.9
O=Cc1cc2c(cc1O)[nH]c1ccc(C(F)(F)F)cc12	L. donovani axenic amastigotes	IC50	µM	21.5
O=Cc1cc2c(cc1O)[nH]c1ccccc12	L. donovani axenic amastigotes	IC50	µM	52
Oc1ccc2c(c1)[nH]c1ccccc12	L. donovani axenic amastigotes	IC50	µM	54.6
COc1ccc2[nH]c3cc(O)c(C)cc3c2c1	L. donovani axenic amastigotes	IC50	µM	50.6
O=Cc1cc2c(cc1O)[nH]c1ccc(OC(F)(F)F)cc12	L. donovani axenic amastigotes	IC50	µM	7.1

Each recorded value in this set is attributed to paper PMC3565020.
